Item-by-item account of melting point

# melting point (compound: CCOc1ccc([N+](=O)[O-])c(NC2CCOCC2)c1 ) is 117 °C

# melting point (compound: N#Cc1ccc(Nc2nc(NCc3ccco3)nc(Nc3ccc(O)cc3)n2)cc1 ) is 62 to 65 °C

# melting point (compound: O=C(CCCCCl)c1cc2c(c([N+](=O)[O-])c1)OCC2 ) is 91 to 92 °C

# melting point (compound: CC(C)Cc1cncc(O)n1 ) is 130 to 131 °C

# melting point (compound: CCOC(=O)NC(=O)C1c2ccccc2Oc2ccc(Br)cc21 (racemic) ) is 203 °C

# melting point (compound: CN1CCN(C(=O)OC2C3=C(SCCS3)C(=O)N2c2ccc(Cl)cn2)CC1 (configuration not stated) ) is 170 °C

# melting point (compound: COC(=O)CCC/C=C\CN1C(=O)c2ccccc2C1=O ) is 47 to 49 °C

# melting point (compound: N#Cc1ccc(C(=C2CCCCCC2)c2ccc(O)cc2)cc1 ) is 110 to 111 °C

# melting point (compound: CC1CC(C)CN(S(=O)(=O)c2ccc(Cl)c(C(=O)Cl)c2)C1 (configuration not stated) ) is 164 to 166 °C

# melting point (compound: Cc1ccsc1C(=O)C(=CN(C)C)c1ccccc1[N+](=O)[O-] ) is 101 to 103 °C

# melting point (compound: O=C(NC(Cc1ccc(OCc2ccccc2)cc1)C(=O)O)c1cn2cc(-c3ccncc3)ccc2n1 (configuration not stated) ) is 268 °C

# melting point (compound: NC(=O)c1[nH]c2ccccc2c1Cl ) is 191 to 192 °C

# melting point (compound: CCN1CCc2ccc(Nc3ncc(Br)c(Nc4ccccc4C(=O)NC)n3)cc2CC1 ) is 203 to 204 °C

# melting point (compound: Cn1cnc2c(=S)[nH]ccc21 ) is > 300 °C

# melting point (compound: O=c1oc2ccccc2n1CCN1CCc2c([nH]c3ccccc23)C1 ) is 135 to 137 °C

# melting point (compound: CC(C)NC(=O)N1CCc2[nH]cnc2C1C(C)C (configuration not stated) ) is 202 °C

# melting point (compound: COc1ccc2nc(NC(=O)CO)sc2c1 ) is 208 to 209 °C

# melting point (compound: CCOc1ccc2c(c1)n(C1CCCCC1)c(=O)n2Cc1ccc([N+](=O)[O-])cc1OC ) is 120 °C

# melting point (compound: O=C1CCN(Cc2cccc(C(F)(F)F)c2)CC1C(c1ccccc1)c1ccccc1 (configuration not stated) ) is 128 to 129 °C

# melting point (compound: CCc1c(O)c(=O)ccn1CCOC(=O)C(C)(C)C ) is 113 to 115 °C

# melting point (compound: CS(=O)(=O)c1ccc(-c2cnn(-c3ccc(F)c(Cl)c3)c(=O)c2C2CCCCC2)cc1 ) is 180 to 181 °C

# melting point (compound: COCc1ccc(-c2ncccc2S(=O)(=O)Nc2ncc(C)nc2OC)cc1 ) is 129 to 130 °C

---

READOUT: melting point (°C)

1: O=C1CCCCCCCCCCCCCCC1
2: Cc1cc2c(cc1Cl)NC(=O)C2(N)c1ccccc1Cl (configuration not stated)
3: COC(=O)c1ccc(OCCCC#N)c(Cl)c1
// sort entries: melting point, high to low Output spec: a listing of the labels in the requested order.
2, 3, 1
(2: 233 °C, 3: 144 °C, 1: 67.7 °C)
